A collection of compounds and their measured AC50
subject.of.test: Alpha-2B adrenergic receptor (Homo sapiens)
Sequence (P18089 whole entry): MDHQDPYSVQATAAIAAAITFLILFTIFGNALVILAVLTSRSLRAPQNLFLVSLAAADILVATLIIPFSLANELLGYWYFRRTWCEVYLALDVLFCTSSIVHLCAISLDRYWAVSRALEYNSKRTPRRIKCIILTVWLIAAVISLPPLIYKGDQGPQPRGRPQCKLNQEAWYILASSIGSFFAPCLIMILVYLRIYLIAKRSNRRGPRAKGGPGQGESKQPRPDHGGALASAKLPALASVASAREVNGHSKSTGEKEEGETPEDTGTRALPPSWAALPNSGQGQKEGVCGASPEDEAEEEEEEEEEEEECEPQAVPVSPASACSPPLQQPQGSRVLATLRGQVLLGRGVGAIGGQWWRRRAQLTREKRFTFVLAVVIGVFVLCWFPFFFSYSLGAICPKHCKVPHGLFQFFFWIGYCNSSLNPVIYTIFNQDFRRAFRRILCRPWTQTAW
property.label: AC50

O=C(O[C@H]1C[N+]2(CCCOc3ccccc3)CCC1CC2)C(O)(c1cccs1)c1cccs1 [ACLIDINIUM BROMIDE] :: > 10 µM
COc1ccc(C(=O)c2ccccc2)c(O)c1 :: > 30 µM
CCN(CC)Cc1nccn1-c1ccc([N+](=O)[O-])cc1C(=O)c1ccccc1Cl :: > 10 µM
CC(=O)OCC1=C(C(=O)O)N2C(=O)[C@@H](NC(=O)Cc3cccs3)[C@H]2SC1 :: > 30 µM
COc1ccc2c3c1O[C@H]1C(=O)CC[C@H]4[C@@H](C2)N(C)CC[C@]314 [HYDROCODONE] :: > 10 µM
N[C@@H](Cc1cc(I)c(Oc2cc(I)c(O)c(I)c2)c(I)c1)C(=O)O :: > 30 µM
OCC(O)COc1ccc(Cl)cc1 (configuration not stated) :: > 10 µM
